Data origin: BigSolDB 2.1

Measurement conditions: in acetone, 318.15 K
Recorded endpoint: solubility (mole fraction)
Answers are plain numbers.

Request: Fill blank: measured solubility (mole fraction) of the compound CN1COCN(Cc2cnc(Cl)s2)C1=N[N+](=O)[O-] is ____.
Result: 0.023
